Would you mind telling me the reported koff of each entry?
Target: T1, murine PRLR (Biacore antigen) (murine, UniProt Q08501 20-229, limits assumed)
T1 construct: also called muPRLR
T1 sequence (looked up): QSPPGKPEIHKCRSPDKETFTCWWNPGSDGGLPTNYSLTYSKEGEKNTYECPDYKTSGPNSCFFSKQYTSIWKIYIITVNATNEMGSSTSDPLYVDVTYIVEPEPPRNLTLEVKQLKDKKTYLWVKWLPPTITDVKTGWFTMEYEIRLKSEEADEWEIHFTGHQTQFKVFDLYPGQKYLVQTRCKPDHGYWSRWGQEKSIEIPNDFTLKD
Assay: SPR Biacore
I only need the number, in s⁻¹, no unit after it.

Per the records, this binder ( chAb5 (antibody, human IgG1, kappa, V domains shown, chimeric, murine variable and human G1/kappa constant regions) VH: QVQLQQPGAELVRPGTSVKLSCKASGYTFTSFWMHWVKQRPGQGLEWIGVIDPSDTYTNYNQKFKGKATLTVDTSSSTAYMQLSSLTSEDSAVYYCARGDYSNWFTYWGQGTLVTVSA VL: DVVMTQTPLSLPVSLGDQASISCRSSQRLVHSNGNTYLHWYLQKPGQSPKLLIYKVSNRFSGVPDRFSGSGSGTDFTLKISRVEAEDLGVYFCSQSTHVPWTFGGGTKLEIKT ) has koff equal to 0.00277

Per the records, this binder ( LFA102 (antibody, human IgG1, kappa, V domains shown, humanized IgG1 kappa comparator (WO 2008022295)) VH: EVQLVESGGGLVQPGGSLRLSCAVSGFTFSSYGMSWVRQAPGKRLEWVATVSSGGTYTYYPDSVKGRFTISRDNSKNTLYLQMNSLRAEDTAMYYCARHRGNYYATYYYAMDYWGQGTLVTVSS VL: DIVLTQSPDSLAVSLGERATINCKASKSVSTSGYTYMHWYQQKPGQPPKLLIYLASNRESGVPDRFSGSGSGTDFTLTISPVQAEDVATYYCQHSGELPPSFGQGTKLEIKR ) has koff equal to 0.016

Per the records, this binder ( Ab39 (antibody, human IgG1, kappa, V domains shown, humanized from Ab7; G1; also called Ab4 HC.1a and Ab4 LC.1a) VH: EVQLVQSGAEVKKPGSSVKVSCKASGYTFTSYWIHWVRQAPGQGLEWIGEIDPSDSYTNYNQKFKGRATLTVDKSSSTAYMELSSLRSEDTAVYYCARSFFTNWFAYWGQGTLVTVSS VL: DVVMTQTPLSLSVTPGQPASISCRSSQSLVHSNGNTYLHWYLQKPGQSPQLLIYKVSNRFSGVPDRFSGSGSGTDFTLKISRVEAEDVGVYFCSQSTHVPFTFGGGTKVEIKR ) has koff equal to 0.0427
